I'd appreciate it if you could supply self-splicing fitness (ln) values for the items below.
Experiment: self-splicing fitness, log relative to wild type (ln ratio); higher = more splicing; Tetrahymena group I intron in knt gene, E. coli kanamycin selection, DiMSum; sequences stand for … in CUCUCU…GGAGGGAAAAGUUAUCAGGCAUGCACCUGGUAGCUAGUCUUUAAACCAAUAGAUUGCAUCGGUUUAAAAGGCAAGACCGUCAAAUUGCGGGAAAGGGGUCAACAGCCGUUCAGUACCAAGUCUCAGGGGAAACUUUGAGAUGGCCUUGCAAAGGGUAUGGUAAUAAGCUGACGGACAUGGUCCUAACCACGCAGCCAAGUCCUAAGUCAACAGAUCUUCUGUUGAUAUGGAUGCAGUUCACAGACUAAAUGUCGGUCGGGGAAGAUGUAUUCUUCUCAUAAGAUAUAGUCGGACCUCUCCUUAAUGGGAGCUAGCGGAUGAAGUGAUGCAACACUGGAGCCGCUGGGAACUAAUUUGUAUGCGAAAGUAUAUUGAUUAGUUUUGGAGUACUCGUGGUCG;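 further: selection with 25 µg/mL kanamycin versus none on LB agar overnight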
Settings: 30 °C
Answers are plain numbers.

Reference set (2 entries):
Construct Sequence | Recorded Result
CUCCAGCAAUAUUACGGUCC | -3.11
CUACAGCAAUAUUACGAGUG | -0.714

Please supply self-splicing fitness (ln) for each of the following items, keeping them in order.
1. GACAAGCAAUAUUACGGCGU
2. CGUCAGCAAUAUUACGGGUC
3. AUACAGCAAUAUUACGGGAA
4. UGAAAGCAAUAUUACGACGG
5. AUUGAGCAAUAUUACGUGCG
6. CUGCAGCAAUAUUACGCAGA

**A:**
1: -0.596; 2: -4.23; 3: -2.72; 4: -0.788; 5: -3.83; 6: -2.32

====

Experiment: self-splicing fitness, log relative to wild type (ln ratio); higher = more splicing; Tetrahymena group I intron in knt gene, E. coli kanamycin selection, DiMSum; sequences stand for … in CUCUCU…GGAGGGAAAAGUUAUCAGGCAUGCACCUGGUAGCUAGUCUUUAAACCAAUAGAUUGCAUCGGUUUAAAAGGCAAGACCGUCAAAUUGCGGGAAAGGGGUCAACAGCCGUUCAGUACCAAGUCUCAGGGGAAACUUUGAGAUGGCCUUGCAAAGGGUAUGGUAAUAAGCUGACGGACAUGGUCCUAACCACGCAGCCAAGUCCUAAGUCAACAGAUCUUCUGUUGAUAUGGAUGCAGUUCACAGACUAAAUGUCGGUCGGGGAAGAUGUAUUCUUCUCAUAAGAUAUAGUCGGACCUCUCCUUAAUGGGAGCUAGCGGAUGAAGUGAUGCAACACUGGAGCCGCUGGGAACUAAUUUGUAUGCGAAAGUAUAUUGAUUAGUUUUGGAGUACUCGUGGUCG
Settings: 37 °C
I'd appreciate it if you could supply self-splicing fitness (ln) values for the items below.
Give bare numbers.

Please supply self-splicing fitness (ln) for each of the following items, keeping them in order.
1. UCAUAGCAAUAUUACGCCGG
2. UAAAAGCAAUAUUACGGGAU

**A:**
-0.72
-2.23

====

Assay: self-splicing fitness, log relative to wild type (ln ratio); higher = more splicing; Tetrahymena group I intron in knt gene, E. coli kanamycin selection, DiMSum; sequences stand for … in CUCUCU…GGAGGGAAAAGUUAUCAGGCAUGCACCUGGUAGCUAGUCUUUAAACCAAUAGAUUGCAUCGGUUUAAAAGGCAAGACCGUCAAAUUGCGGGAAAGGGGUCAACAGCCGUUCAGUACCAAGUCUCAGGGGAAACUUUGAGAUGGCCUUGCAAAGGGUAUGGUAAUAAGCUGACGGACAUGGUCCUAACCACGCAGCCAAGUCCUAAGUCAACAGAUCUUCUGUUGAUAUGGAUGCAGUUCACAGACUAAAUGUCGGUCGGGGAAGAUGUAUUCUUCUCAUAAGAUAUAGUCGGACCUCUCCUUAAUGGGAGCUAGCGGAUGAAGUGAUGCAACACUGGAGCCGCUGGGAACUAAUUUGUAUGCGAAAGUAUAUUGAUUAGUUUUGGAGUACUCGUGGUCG
Settings: 30 °C
I'd appreciate it if you could supply self-splicing fitness (ln) values for the items below.
Numbers only.

Reference set (6 entries):
Construct Sequence | self-splicing fitness (ln)
CGUUAGCAAUAUUACGUUUU | -4.77
AGGGAGCAAUAUUACGAUGA | -3.54
CUAUAGCAAUAUUACGCGCA | -2.97
UGUAAGCAAUAUUACGCAUA | -0.865
CUGCAGCAAUAUUACGGCUC | -2.57
UCUAAGCAAUAUUACGAAUU | -3.75

Please supply self-splicing fitness (ln) for each of the following items, keeping them in order.
1. CGACAGCAAUAUUACGCCCC
2. CCGCAGCAAUAUUACGCAAU
3. AUUAAGCAAUAUUACGAUAC
4. GGGCAGCAAUAUUACGCGGU
5. CAAGAGCAAUAUUACGACUA
6. ACCCAGCAAUAUUACGCAUG
7. CGCUAGCAAUAUUACGUUGG
8. CGGUAGCAAUAUUACGUAAU

**A:**
1: -1.19; 2: -3.95; 3: -1.93; 4: -3.4; 5: -3.01; 6: -4.1; 7: -4; 8: -3.97

Please supply self-splicing fitness (ln) for each of the following items, keeping them in order.
1. UUCCAGCAAUAUUACGCGAG
2. CCCGAGCAAUAUUACGUCGG

**A:**
1. -0.566
2. -3.02

Please supply self-splicing fitness (ln) for each of the following items, keeping them in order.
1. GCUCAGCAAUAUUACGUGUA
2. CAUGAGCAAUAUUACGGUGA
3. AAUUAGCAAUAUUACGGGCG

**A:**
1. -0.241
2. -1.91
3. -0.93

Please supply self-splicing fitness (ln) for each of the following items, keeping them in order.
1. UCGUAGCAAUAUUACGAGGC
2. GUCAAGCAAUAUUACGUAAU
3. AAUUAGCAAUAUUACGUCCG
4. UCACAGCAAUAUUACGCUUU
5. CAUUAGCAAUAUUACGCGAC
6. UUCAAGCAAUAUUACGAUCU

**A:**
[-0.464, -0.836, -1.12, -3.36, -3.58, -1.59]

====

Assay: self-splicing fitness, log relative to wild type (ln ratio); higher = more splicing; Tetrahymena group I intron in knt gene, E. coli kanamycin selection, DiMSum; sequences stand for … in CUCUCU…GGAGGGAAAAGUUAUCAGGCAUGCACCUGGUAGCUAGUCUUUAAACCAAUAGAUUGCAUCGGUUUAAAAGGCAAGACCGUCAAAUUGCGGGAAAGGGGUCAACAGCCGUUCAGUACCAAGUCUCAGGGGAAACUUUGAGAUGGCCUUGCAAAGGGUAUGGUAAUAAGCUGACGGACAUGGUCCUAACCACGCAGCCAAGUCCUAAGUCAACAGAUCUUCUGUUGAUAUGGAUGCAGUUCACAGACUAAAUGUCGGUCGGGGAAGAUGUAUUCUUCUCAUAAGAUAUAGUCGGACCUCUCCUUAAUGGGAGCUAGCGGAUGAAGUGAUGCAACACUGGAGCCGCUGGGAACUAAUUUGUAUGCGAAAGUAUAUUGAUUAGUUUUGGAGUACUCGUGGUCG
Conditions: 37 °C
Think of -2 as a floor: if self-splicing fitness (ln) stands on it or above, it is satisfied; beneath it, not satisfied.

Use the examples below as a reference point.
Construct Sequence | Qualitative Label
CCUCAGCAAUAUUACGGUAG | satisfied
CAUCAGCAAUAUUACGAGAG | satisfied
AUGCAGCAAUAUUACGCCAG | satisfied
UAGUAGCAAUAUUACGCCGU | not satisfied

**Q:** Given CCAAAGCAAUAUUACGAAAU , state whether its self-splicing fitness (ln) is at least -2.
**A:** not satisfied

**Q:** Given GAUCAGCAAUAUUACGAGUG , state whether its self-splicing fitness (ln) is at least -2.
**A:** satisfied

====

Test: self-splicing fitness, log relative to wild type (ln ratio); higher = more splicing; Tetrahymena group I intron in knt gene, E. coli kanamycin selection, DiMSum; sequences stand for … in CUCUCU…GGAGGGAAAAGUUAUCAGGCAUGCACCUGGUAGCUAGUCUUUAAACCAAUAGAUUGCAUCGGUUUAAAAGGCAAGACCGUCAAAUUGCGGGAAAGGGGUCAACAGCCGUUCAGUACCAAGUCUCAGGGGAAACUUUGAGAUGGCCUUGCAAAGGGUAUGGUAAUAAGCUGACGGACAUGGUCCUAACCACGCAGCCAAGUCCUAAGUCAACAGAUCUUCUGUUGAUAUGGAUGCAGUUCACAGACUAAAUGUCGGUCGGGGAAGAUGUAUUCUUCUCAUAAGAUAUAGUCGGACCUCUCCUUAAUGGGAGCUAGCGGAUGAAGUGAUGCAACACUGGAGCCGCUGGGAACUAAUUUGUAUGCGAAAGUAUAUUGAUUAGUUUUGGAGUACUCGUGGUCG
Details: 37 °C
Parameter Measured: self-splicing fitness (ln)
One number for each entry.

Reference set (2 entries):
Construct Sequence | Recorded Result
UAGAAGCAAUAUUACGACAG | -0.152
CACUAGCAAUAUUACGUCAA | -2.27

Please supply self-splicing fitness (ln) for each of the following items, keeping them in order.
1. AUCCAGCAAUAUUACGGGCA
2. GUGAAGCAAUAUUACGGUGG
3. GCGUAGCAAUAUUACGCGAG
4. UUUUAGCAAUAUUACGGAAA
5. GAGCAGCAAUAUUACGGAGA
6. CUUAAGCAAUAUUACGAGUA
7. UUAAAGCAAUAUUACGUUCU

**A:**
1: -0.507; 2: -1.78; 3: -2.54; 4: -1.14; 5: -2.16; 6: -1.94; 7: -0.401

Please supply self-splicing fitness (ln) for each of the following items, keeping them in order.
1. CCGAAGCAAUAUUACGCGCC
2. AUGUAGCAAUAUUACGACCU
3. GAACAGCAAUAUUACGCCGC
4. CCGGAGCAAUAUUACGGCUG
5. CGAUAGCAAUAUUACGAGUU

**A:**
[-2.27, -0.136, -2.35, -0.43, -2.28]

Please supply self-splicing fitness (ln) for each of the following items, keeping them in order.
1. CCGUAGCAAUAUUACGGAUG
2. GCUAAGCAAUAUUACGUCUC

**A:**
1: -2.11; 2: -0.164
